# Test system: NCI-H1341 complex spheroids, percent test/control
# procedure text: Anticancer human tumor NCI-H1341 cell line growth inhibition [AhR]; active means viability on the fitted dose curve at most 10% of control; inactive means the rest;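 further: spheroids exposed to agents for seven days before readout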
# experimental conditions: second compound 0.1 µM; first compound 3.16 µM
Classes used: class 1 (active), class 0 (inactive)

[
  {
    "molecule": "CC1(C)CCC(CN2CCN(c3ccc(C(=O)NS(=O)(=O)c4ccc(NCC5CCOCC5)c([N+](=O)[O-])c4)c(Oc4cnc5[nH]ccc5c4)c3)CC2)=C(c2ccc(Cl)cc2)C1 + Cc1cncc(-c2nc(NCCc3c[nH]c4ccccc34)c3ncn(C(C)C)c3n2)c1",
    "group label": "class 0"
  },
  {
    "molecule": "CC(C)c1c(-c2ccccc2)nc2c(C#N)c[nH]n2c1=O + CC(CO)NC(=O)c1cc(-c2ccc(Cl)cc2)nn(-c2cnn(C)c2)c1=O",
    "group label": "class 0"
  },
  {
    "molecule": "CC1(C)CCC(CN2CCN(c3ccc(C(=O)NS(=O)(=O)c4ccc(NCC5CCOCC5)c([N+](=O)[O-])c4)c(Oc4cnc5[nH]ccc5c4)c3)CC2)=C(c2ccc(Cl)cc2)C1 + Cc1ccccc1N=Nc1ccc(NC(=O)c2ccnn2C)c(C)c1",
    "group label": "class 0"
  },
  {
    "molecule": "O=C(c1cc(Cc2n[nH]c(=O)c3ccccc23)ccc1F)N1CCN(C(=O)C2CC2)CC1 + Cc1cncc(-c2nc(NCCc3c[nH]c4ccccc34)c3ncn(C(C)C)c3n2)c1",
    "group label": "class 0"
  },
  {
    "molecule": "COc1cccc2c1C(=O)c1c(O)c3c(c(O)c1C2=O)CC(O)(C(=O)CO)CC3OC1CC(N)C(O)C(C)O1 (stereo unspecified) + CC(CO)NC(=O)c1cc(-c2ccc(Cl)cc2)nn(-c2cnn(C)c2)c1=O",
    "group label": "class 1"
  },
  {
    "molecule": "O=C(c1cc(Cc2n[nH]c(=O)c3ccccc23)ccc1F)N1CCN(C(=O)C2CC2)CC1 + Cc1ccccc1N=Nc1ccc(NC(=O)c2ccnn2C)c(C)c1",
    "group label": "class 0"
  },
  {
    "molecule": "COc1cc(Nc2ncc3c(n2)-c2ccc(Cl)cc2C(c2c(F)cccc2OC)=NC3)ccc1C(=O)O + Cc1ccccc1N=Nc1ccc(NC(=O)c2ccnn2C)c(C)c1",
    "group label": "class 0"
  },
  {
    "molecule": "CC1COCCN1c1cc(C2(S(C)(=N)=O)CC2)nc(-c2ccnc3[nH]ccc23)n1 (stereo unspecified) + Cc1cncc(-c2nc(NCCc3c[nH]c4ccccc34)c3ncn(C(C)C)c3n2)c1",
    "group label": "class 0"
  },
  {
    "molecule": "CC1(C)CCC(CN2CCN(c3ccc(C(=O)NS(=O)(=O)c4ccc(NCC5CCOCC5)c([N+](=O)[O-])c4)c(Oc4cnc5[nH]ccc5c4)c3)CC2)=C(c2ccc(Cl)cc2)C1 + CC(CO)NC(=O)c1cc(-c2ccc(Cl)cc2)nn(-c2cnn(C)c2)c1=O",
    "group label": "class 0"
  },
  {
    "molecule": "CC(C)c1c(-c2ccccc2)nc2c(C#N)c[nH]n2c1=O + Cc1cncc(-c2nc(NCCc3c[nH]c4ccccc34)c3ncn(C(C)C)c3n2)c1",
    "group label": "class 0"
  },
  {
    "molecule": "O=C(C=Cc1cccc(S(=O)(=O)Nc2ccccc2)c1)NO + Cc1ccccc1N=Nc1ccc(NC(=O)c2ccnn2C)c(C)c1",
    "group label": "class 1"
  }
]

----------
# Test system: NCI-H1341 complex spheroids, percent test/control
# procedure text: Anticancer human tumor NCI-H1341 cell line growth inhibition [AhR]; active = viability on the fitted dose curve at most 10% of control; inactive = the rest;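 further: spheroids exposed to agents for seven days before readout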
# experimental conditions: second compound 10 µM; first compound 0.00949 µM
Outcomes: t (active), f (inactive)

[
  {
    "compound": "Nc1ncn(C2CC(O)C(CO)S2)c(=O)n1 (stereo not drawn) + Cc1ccccc1N=Nc1ccc(NC(=O)c2ccnn2C)c(C)c1",
    "group label": "f"
  },
  {
    "compound": "CC(C)CC(NC(=O)C(Cc1ccccc1)NC(=O)c1cnccn1)B(O)O (stereo not drawn) + Cc1ccccc1N=Nc1ccc(NC(=O)c2ccnn2C)c(C)c1",
    "group label": "t"
  },
  {
    "compound": "CC(C)CC(NC(=O)C(Cc1ccccc1)NC(=O)c1cnccn1)B(O)O (stereo not drawn) + Cc1cncc(-c2nc(NCCc3c[nH]c4ccccc34)c3ncn(C(C)C)c3n2)c1",
    "group label": "t"
  }
]

----------
The entries below come with measured pIC50 values attached.
# Test system: NCI-H1341 complex spheroids, percent test/control
# procedure text: Anticancer human tumor NCI-H1341 cell line growth inhibition [AhR];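 further: spheroids exposed to agents for seven days before readout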
# experimental conditions: curve of first compound; second compound 1 µM
pIC50: −log10 of the molar value.

[
  {
    "compound": "O=C(c1cc(Cc2n[nH]c(=O)c3ccccc23)ccc1F)N1CCN(C(=O)C2CC2)CC1 + CC(CO)NC(=O)c1cc(-c2ccc(Cl)cc2)nn(-c2cnn(C)c2)c1=O",
    "pIC50": "< 5.00"
  },
  {
    "compound": "Nc1ncn(C2CC(O)C(CO)O2)c(=O)n1 (centres undefined) + Cc1ccccc1N=Nc1ccc(NC(=O)c2ccnn2C)c(C)c1",
    "pIC50": "< 6.00"
  },
  {
    "compound": "Nc1ccn(C2OC(CO)C(O)C2(F)F)c(=O)n1 (centres undefined) + CC(CO)NC(=O)c1cc(-c2ccc(Cl)cc2)nn(-c2cnn(C)c2)c1=O",
    "pIC50": "> 7.50"
  },
  {
    "compound": "NS(=O)(=O)OCC1CC(n2ccc3c(NC4CCc5ccccc54)ncnc32)CC1O (centres undefined) + CC(CO)NC(=O)c1cc(-c2ccc(Cl)cc2)nn(-c2cnn(C)c2)c1=O",
    "pIC50": "> 7.50"
  }
]

----------
# Tested on: NCI-H1341 complex spheroids, percent test/control
# procedure text: Anticancer human tumor NCI-H1341 cell line growth inhibition [AhR];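 further: spheroids exposed to agents for seven days before readout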
# experimental conditions: curve of first compound; second compound 10 µM
Listed below: IC50 values for each entry.

[
  {
    "compound": "CCc1c2c(nc3ccc(O)cc13)-c1cc3c(c(=O)n1C2)COC(=O)[C@]3(O)CC + Cc1ccccc1N=Nc1ccc(NC(=O)c2ccnn2C)c(C)c1",
    "target": "NCI-H1341 complex spheroids, percent test/control",
    "IC50": "9.79 nM"
  },
  {
    "compound": "CC1COCCN1c1cc(-c2ccnn2C)c2ccnc(-c3ccn[nH]3)c2n1 (stereo unspecified) + Cc1cncc(-c2nc(NCCc3c[nH]c4ccccc34)c3ncn(C(C)C)c3n2)c1",
    "target": "NCI-H1341 complex spheroids, percent test/control",
    "IC50": "< 3.16 nM"
  },
  {
    "compound": "NS(=O)(=O)OCC1CC(n2ccc3c(NC4CCc5ccccc54)ncnc32)CC1O (stereo unspecified) + Cc1cncc(-c2nc(NCCc3c[nH]c4ccccc34)c3ncn(C(C)C)c3n2)c1",
    "target": "NCI-H1341 complex spheroids, percent test/control",
    "IC50": "< 31.6 nM"
  },
  {
    "compound": "O=C(C=Cc1cccc(S(=O)(=O)Nc2ccccc2)c1)NO + Cc1cncc(-c2nc(NCCc3c[nH]c4ccccc34)c3ncn(C(C)C)c3n2)c1",
    "target": "NCI-H1341 complex spheroids, percent test/control",
    "IC50": "< 31.6 nM"
  },
  {
    "compound": "CC1COCCN1c1cc(C2(S(C)(=N)=O)CC2)nc(-c2ccnc3[nH]ccc23)n1 (stereo unspecified) + Cc1ccccc1N=Nc1ccc(NC(=O)c2ccnn2C)c(C)c1",
    "target": "NCI-H1341 complex spheroids, percent test/control",
    "IC50": "721 nM"
  },
  {
    "compound": "NS(=O)(=O)OCC1CC(n2ccc3c(NC4CCc5ccccc54)ncnc32)CC1O (stereo unspecified) + Cc1ccccc1N=Nc1ccc(NC(=O)c2ccnn2C)c(C)c1",
    "target": "NCI-H1341 complex spheroids, percent test/control",
    "IC50": "< 31.6 nM"
  }
]

----------
Some molecules, each annotated with its measured viability, T/C.
# Test system: NCI-H1341 complex spheroids, percent test/control
# procedure text: Anticancer human tumor NCI-H1341 cell line growth inhibition [AhR];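 further: spheroids exposed to agents for seven days before readout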
# experimental conditions: second compound 0.316 µM; first compound 0.03 µM; stronger effect = lower value
property measured: viability, T/C (%)

[
  {
    "molecule": "CC(C)CC(NC(=O)C(Cc1ccccc1)NC(=O)c1cnccn1)B(O)O (stereo not drawn) + Cc1ccccc1N=Nc1ccc(NC(=O)c2ccnn2C)c(C)c1",
    "property measured": "viability, T/C",
    "value unit": "%",
    "observed measurement": 0.07
  },
  {
    "molecule": "CCN(c1cc(-c2ccc(CN3CCOCC3)cc2)cc(C(=O)NCc2c(C)cc(C)[nH]c2=O)c1C)C1CCOCC1 + Cc1ccccc1N=Nc1ccc(NC(=O)c2ccnn2C)c(C)c1",
    "property measured": "viability, T/C",
    "value unit": "%",
    "observed measurement": 103
  },
  {
    "molecule": "O=C(C=Cn1cnc(-c2cc(C(F)(F)F)cc(C(F)(F)F)c2)n1)NNc1cnccn1 + Cc1cncc(-c2nc(NCCc3c[nH]c4ccccc34)c3ncn(C(C)C)c3n2)c1",
    "property measured": "viability, T/C",
    "value unit": "%",
    "observed measurement": 65.7
  }
]
